B1: tRNA (parent)
chain: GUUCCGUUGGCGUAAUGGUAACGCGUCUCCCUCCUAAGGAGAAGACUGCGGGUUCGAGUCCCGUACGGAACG

Variants of: B1
Test: yeast fitness relative to wild type (ratio to wild type); higher = fitter; tRNA-Arg(CCU), competitive growth, 37 C, YPD
Variants at the floor of the assay were thinned out.
Below, each of the variants is paired with its reported yeast fitness value.

A37C C46G C62U | 0.872
C4U G12A A40U | 0.642
C4G U8G G9A C11U C49A | ≤ 0.5
U3C C24G G44A | ≤ 0.5

Input line: What value of measured yeast fitness is listed for U3C C4G U28C A43C ?
Output line: ≤ 0.5

Input line: What value of measured yeast fitness is listed for C5U C11A C31U C34U ?
Output line: ≤ 0.5

Input line: What value of measured yeast fitness is listed for U8G G10C A20G ?
Output line: ≤ 0.5

Input line: What value of measured yeast fitness is listed for A14U C34A C46U ?
Output line: ≤ 0.5

Input line: What value of measured yeast fitness is listed for G6C U35A G44C ?
Output line: 0.569

Input line: What value of measured yeast fitness is listed for G12A G48A ?
Output line: 0.819

Input line: What value of measured yeast fitness is listed for A37U G39C G48A U53G ?
Output line: ≤ 0.5
